Each recorded value in this set is attributed to patent US4464385A.

tested on: cataracts in rats; test: Prevention or retardation of cataracts in galactose-fed rats; assay type: in vivo, rat; settings: Study Day 28; 30% galactose diet; A,C,E 0.0025%, B,D 0.01%
measured parameter: % of Total Eyes, N (nuclear cataract) (%)
Answer with a number only, understood to be in %.

Input: # get_value(readout='% of Total Eyes, N (nuclear cataract)', item= O=C1NC(=O)C2(CCOc3ccc(F)cc32)N1 (stereo not shown) )
Output: 0

Input: # get_value(readout='% of Total Eyes, N (nuclear cataract)', item= C[S+]([O-])c1ccc2c(c1)C1(CCO2)NC(=O)NC1=O (stereo not shown) )
Output: 16.7

Input: # get_value(readout='% of Total Eyes, N (nuclear cataract)', item= CSc1ccc2c(c1)C1(CCO2)NC(=O)NC1=O (stereo not shown) [B] )
Output: 0

Input: # get_value(readout='% of Total Eyes, N (nuclear cataract)', item= CSc1ccc2c(c1)C1(CCO2)NC(=O)NC1=O (stereo not shown) [A] )
Output: 8.3
